Molecular target: T1, human a-PD-L1 Fc (Sino Biological, 10084-H02H, LC11NO2402) (human, UniProt Q9NZQ7 19-239)
T1 construct: Bought Fc fusion immobilised on the SPR chip; Printed as 'a-PD-L1 Fc' but used as the antigen (ligand) for the anti-PD-L1 scFvs; also called Human PD-L1; not shown: Fc part
T1 sequence (Q9NZQ7 19-239 limits assumed): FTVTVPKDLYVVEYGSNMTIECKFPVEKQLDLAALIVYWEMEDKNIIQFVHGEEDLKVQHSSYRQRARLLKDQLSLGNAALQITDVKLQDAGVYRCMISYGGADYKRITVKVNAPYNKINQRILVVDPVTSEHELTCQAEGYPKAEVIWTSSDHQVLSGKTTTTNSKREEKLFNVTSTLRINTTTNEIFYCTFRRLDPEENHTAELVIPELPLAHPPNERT
Assay: SPR, PD-L1 Fc immobilised, scFv analyte, 1:1 fit
property-name: pKd
The read-out pKd is expressed as -log10 of concentration in moles per litre.

*Q* Fill in reported pKd for this entry: PRO2913 (scFv 37-20-B03-sc09.1_(T101S, T146Q)) (scFv, PRO2230 variant; VH substitutions, AHo numbering; also called PRO2230 T101S-T146Q) scFv: DIQMTQSPASLSASVGDRVTITCQASQSIGTYLAWYQQKPGKPPKLLIYRAFILASGVPSRFSGSGSGTDFTLTISSLQPEDFATYYCQSNFYSDSTTIGPNAFGTGTKVTVLGGGGGSGGGGSGGGGSGGGGSEVQLVESGGGLVQPGGSLRLSCAASGFSFNSDYWIYWVRQAPGKGLEWIASIYGGSSGNTQYASWAQGRFTISRDNSKNTVYLQMNSLRAEDSAVYFCARGYVDYGGATDLWGQGTLVQVSS
*A* 10.24

*Q* Fill in reported pKd for this entry: PRO3341 (scFv 37-20-B03-sc09.1_(T101S, T146S)) (scFv, PRO2230 variant; VH substitutions, AHo numbering; also called PRO2230 T101S-T146S) scFv: DIQMTQSPASLSASVGDRVTITCQASQSIGTYLAWYQQKPGKPPKLLIYRAFILASGVPSRFSGSGSGTDFTLTISSLQPEDFATYYCQSNFYSDSTTIGPNAFGTGTKVTVLGGGGGSGGGGSGGGGSGGGGSEVQLVESGGGLVQPGGSLRLSCAASGFSFNSDYWIYWVRQAPGKGLEWIASIYGGSSGNTQYASWAQGRFTISRDNSKNTVYLQMNSLRAEDSAVYFCARGYVDYGGATDLWGQGTLVSVSS
*A* 10.29

*Q* Fill in reported pKd for this entry: PRO2984 (scFv 37-20-B03-sc09.1_(L12S, V103T, L144T)) (scFv, VH substitutions, AHo numbering; also called PRO2230-L12S-V103T-L144T) scFv: DIQMTQSPASLSASVGDRVTITCQASQSIGTYLAWYQQKPGKPPKLLIYRAFILASGVPSRFSGSGSGTDFTLTISSLQPEDFATYYCQSNFYSDSTTIGPNAFGTGTKVTVLGGGGGSGGGGSGGGGSGGGGSEVQLVESGGGSVQPGGSLRLSCAASGFSFNSDYWIYWVRQAPGKGLEWIASIYGGSSGNTQYASWAQGRFTISRDNSKNTVYLQMNSLRAEDTATYFCARGYVDYGGATDLWGQGTTVTVSS
*A* 10.44

*Q* Fill in reported pKd for this entry: PRO2985 (scFv 37-20-B03-sc09.1_(T101A)) (scFv, PRO2230 variant; VH substitution, AHo numbering; also called PRO2230 T101A) scFv: DIQMTQSPASLSASVGDRVTITCQASQSIGTYLAWYQQKPGKPPKLLIYRAFILASGVPSRFSGSGSGTDFTLTISSLQPEDFATYYCQSNFYSDSTTIGPNAFGTGTKVTVLGGGGGSGGGGSGGGGSGGGGSEVQLVESGGGLVQPGGSLRLSCAASGFSFNSDYWIYWVRQAPGKGLEWIASIYGGSSGNTQYASWAQGRFTISRDNSKNTVYLQMNSLRAEDAAVYFCARGYVDYGGATDLWGQGTLVTVSS
*A* 10.33

*Q* Fill in reported pKd for this entry: PRO2952 (scFv 37-20-B03-sc09.1_(T101S)) (scFv, PRO2230 variant; VH substitution, AHo numbering; also called PRO2230 T101S) scFv: DIQMTQSPASLSASVGDRVTITCQASQSIGTYLAWYQQKPGKPPKLLIYRAFILASGVPSRFSGSGSGTDFTLTISSLQPEDFATYYCQSNFYSDSTTIGPNAFGTGTKVTVLGGGGGSGGGGSGGGGSGGGGSEVQLVESGGGLVQPGGSLRLSCAASGFSFNSDYWIYWVRQAPGKGLEWIASIYGGSSGNTQYASWAQGRFTISRDNSKNTVYLQMNSLRAEDSAVYFCARGYVDYGGATDLWGQGTLVTVSS
*A* 10.44
